- Test system: human APOE RNA
- test method notes: Activity in APOE C57BL/6NTac-Apoeem7250 knock-in mice, single ICV bolus, 20 weeks (Example 13)
- Format: in vivo
- condition parameters: cortex; single ICV bolus 300 μg; 20 weeks post treatment; normalized to mouse Ppia
Strand notation (5' to 3'): a small letter for the sugar, then the base; units joined by * are phosphorothioate-linked, units joined directly phosphodiester-linked; [ ] holds rarer units or linkages, { } end groups; capitals alone tell only the bases. [ms] = mesyl phosphoramidate linkage; e = 2'-O-(2-methoxyethyl) (MOE); k = constrained ethyl (cEt); [5mC] = 5-methylcytosine; d = 2'-deoxy (DNA)
readout kind: APOE RNA (% control) Cortex
Report as a plain number; the unit % control is understood.

Previously resolved entries follow.
1757570 (eA*e[5mC]eTeTkG*dG*dT*dG*dA*dA*dT*d[5mC]*dT*dT*dT*kAkTeT*eA*eA; antisense) [Compound 1757570]	64
1757556: mixed MOE/cEt gapmer TTGGTGAATCTTTATTAA, sugar eeeeeddddddddekkee, linkages soossssssssssooss (eT*eTeGeG*eT*dG*dA*dA*dT*d[5mC]*dT*dT*dT*eAkTkT*eA*eA) [compound 1757556]	99
1778154: modified oligonucleotide complementary to human APOE RNA (e[5mC]*eT*eTeGeGeT*dG[ms]dA[ms]dA*dT*d[5mC]*dT*dT*dT*dA*dT*kTkAeA*eA; antisense) [compound 1778154]	82
1778126 (eA*e[5mC]eTeTkG*kG*dT*dG[ms]dA[ms]dA*dT*d[5mC]*dT*dT*dT*dA[ms]kT*eT*eA*eA; antisense) [Compound 1778126]	52
1736526: 6-10-4 MOE gapmer CTTGGTGAATCTTTATTAAA, linkages ssoooszzsssssssssss (e[5mC]*eT*eTeGeGeT*dG[ms]dA[ms]dA*dT*d[5mC]*dT*dT*dT*dA*dT*eT*eA*eA*eA) [compound 1736526]	67

Prompt: Return reported APOE RNA (% control) Cortex; argument: 1757573 (eA*e[5mC]eTeT*eG*eG*dT*dG[ms]dA[ms]dA[ms]dT*d[5mC]*dT*dT*dT*dA[ms]kT*eT*eA*eA; antisense) [Compound 1757573]
Completion: 61

Prompt: Next record, please: 1778107: 6-10-4 MOE gapmer ACTTGGTGAATCTTTATTAA, linkages sooossszzsssssszsss (eA*e[5mC]eTeTeG*eG*dT*dG[ms]dA[ms]dA*dT*d[5mC]*dT*dT*dT*dA[ms]eT*eT*eA*eA) [compound 1778107]
Completion: 76

Prompt: // repeat for 1736525: 6-10-4 MOE gapmer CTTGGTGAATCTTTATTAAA, linkages sooosszzsssssssssss (e[5mC]*eTeTeGeG*eT*dG[ms]dA[ms]dA*dT*d[5mC]*dT*dT*dT*dA*dT*eT*eA*eA*eA) [compound 1736525] and report
Completion: 71

Prompt: What do we get for 1785604: modified oligonucleotide complementary to human APOE RNA (k[5mC]*dT[ms]dT[ms]kG*dG[ms]kT*dG[ms]dA[ms]dA*dT*d[5mC]*dT*dT*dT*dA*dT*kT*kA*dA[ms]kA; antisense) [compound 1785604] ?
Completion: 55

Prompt: Then this substance: 1779699 (e[5mC]*eTeT*kG*kG*eT*dG[ms]dA[ms]dA[ms]dT*d[5mC]*dT*dT*dT*dA[ms]dT*eT*eA*eA*eA; antisense) [Compound 1779699]
Completion: 53
